Molecular target: T1, Bud14, P27637
T1 sequence (P27637 247-328, looked up): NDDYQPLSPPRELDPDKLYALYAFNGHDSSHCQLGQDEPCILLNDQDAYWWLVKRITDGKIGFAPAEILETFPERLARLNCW
Assay: SPOT array
Details: median of control spots 956
Property measured: SPOT intensity

(I) PLQSKIPMLPSRRTM
(II) RRARRQMGIPTISQV
(III) NFLRLLIGLPSQNEL
(IV) KLSRGRYGLPLSSRP
Request: Hey, quick one: sort these by SPOT intensity, low to high? # list labels per requested ordering
Result: I, IV, III, II

(1) SNRRPVPRRPSQPLN
(2) LPPPPPPPPPPPLPQ
Request: Lowest SPOT intensity? choose 1 or 2 Lab log: write the label of the selected item as the result.
Result: 2
(2: 0, 1: 16)
